The measurements presented in this section are drawn from patent US20040097594A1.

Target: HIV-1 protease (Human immunodeficiency virus type 1 group M subtype B)
Assay: biochemical
Settings: HIV-1 protease; upper line of each compound's entry; read-out: Ki (enzyme)
pKi: −log10 of the molar value.
Reported Metric: pKi

1) COCOc1ccc(S(=O)(=O)N(C[C@@H](O)[C@H](Cc2ccccc2)NC(=O)OC(C)(C)C)OC2CCCC2)cc1: 7.00 to 8.00
2) COc1ccc(S(=O)(=O)N(C[C@@H](O)[C@H](Cc2ccccc2)NC(=O)OC(C)(C)C)Oc2ccccc2)cc1: 7.00 to 8.00
3) CS(=O)(=O)Nc1nc2cc(S(=O)(=O)N(C[C@@H](O)[C@H](Cc3ccccc3)NC(=O)O[C@H]3CO[C@H]4OCC[C@H]43)OC3CCCC3)ccc2[nH]1: > 9.00
4) COc1ccc(S(=O)(=O)N(C[C@@H](O)[C@H](Cc2ccccc2)NC(=O)OC(C)(C)C)OCC2CCCCC2)cc1: 7.00 to 8.00
5) CC(=O)NCCNc1cccc(S(=O)(=O)N(CC(O)C(Cc2ccccc2)NC(=O)OC2COC3OCCC23)OC2CCCC2)c1 (stereo not shown): > 9.00
6) CC(C)ON(C[C@@H](O)[C@H](Cc1ccccc1)NC(=O)OC(C)(C)C)S(=O)(=O)c1ccc2[nH]c(NS(C)(=O)=O)nc2c1: 8.00 to 9.00

Query block: Give a short answer stating reported pKi for `CC(C)(C)OC(=O)N[C@@H](Cc1ccccc1)[C@H](O)CN(OC1CCCC1)S(=O)(=O)c1cccc(N)c1` .
Result block: 8.00 to 9.00

Query block: Report pKi for CC(C)(C)OC(=O)CNc1cccc(S(=O)(=O)N(CC(O)C(Cc2ccccc2)NC(=O)OC2COC3OCCC23)OC2CCCC2)c1 (mixture of isomers)
Result block: > 9.00

Query block: Give pKi for `CC(C)ON(C[C@@H](O)[C@H](Cc1ccccc1)NC(=O)O[C@H]1CCOC1)S(=O)(=O)c1cccc(N)c1`
Result block: 8.00 to 9.00

---

Overview of recorded Ki for various compounds
Target: HIV-1 protease (Human immunodeficiency virus type 1 group M subtype B)
Experiment: biochemical
Conditions: HIV-1 protease; upper line of each compound's entry; read-out: Ki (enzyme)

1) CNc1cccc(S(=O)(=O)N(C[C@@H](O)[C@H](Cc2ccccc2)NC(=O)O[C@H]2CO[C@H]3OCC[C@H]32)OC(C)C)c1: < 1 nM

Query block: Read the entry O=C(N[C@@H](Cc1ccccc1)[C@H](O)CN(OC1CCCC1)S(=O)(=O)c1ccc2[nH]ncc2c1)OC1CO[C@H]2OCC[C@@H]12 (stereo partly drawn) and write its reported Ki.
Result block: < 1 nM

Query block: Please give the documented Ki of `Nc1ccc(S(=O)(=O)N(C[C@@H](O)[C@H](Cc2ccccc2)NC(=O)O[C@H]2CO[C@H]3OCC[C@H]32)OC2CCOCC2)cc1`
Result block: < 1 nM

Query block: Note down Ki recorded for `O=C(N[C@@H](Cc1ccccc1)[C@H](O)CN(OC1CCCC1)S(=O)(=O)c1ccc(OCCN2CCOCC2)cc1)O[C@H]1CO[C@H]2OCC[C@H]21`
Result block: < 1 nM

Query block: Look up and report measured Ki for this entry: `CN(C(=O)OC(C)(C)C)c1cccc(S(=O)(=O)N(C[C@@H](O)[C@H](Cc2ccccc2)NC(=O)O[C@H]2CO[C@H]3OCC[C@H]32)OC2CCCC2)c1`
Result block: > 100 nM

Query block: Identify measured Ki corresponding to NC(=O)CNc1cccc(S(=O)(=O)N(CC(O)C(Cc2ccccc2)NC(=O)OC2COC3OCCC23)OC2CCCC2)c1 (stereo not drawn)
Result block: < 1 nM

---

Tested on: HIV-1 (strain IIIB)
Assay: microbe, parasite or virus in culture
Format: cell-based
Settings: Human immunodeficiency virus 1, 120 h; MT4 cells infected with HIV-1 strain IIIB, 5 days; lower line of each compound's entry; read-out: IC50 (MT-4 cells)
pIC50: −log10 of the molar value.
Reported Metric: pIC50

Known results for compounds:
1. COc1ccc(S(=O)(=O)N(C[C@@H](O)[C@H](Cc2ccccc2)NC(=O)OC2CO[C@H]3OCC[C@@H]23)OC2CCOCC2)cc1 (stereo partly shown): ≥ 7.00
2. O=C(NC(Cc1ccccc1)C(O)CN(OC1CCCC1)S(=O)(=O)c1cccc(NCCO)c1)OC1COC2OCCC12 (stereo not shown): ≥ 7.00
3. CCC(CC)ON(C[C@@H](O)[C@H](Cc1ccccc1)NC(=O)O[C@H]1CO[C@H]2OCC[C@H]21)S(=O)(=O)c1ccc(N)cc1: ≥ 7.00
4. CC(C)ON(C[C@@H](O)[C@H](Cc1ccccc1)NC(=O)OC(C)(C)C)S(=O)(=O)c1cccc(N)c1: < 6.00
5. O=C(N[C@@H](Cc1ccccc1)[C@H](O)CN(OC1CCOCC1)S(=O)(=O)c1cccc(O)c1)O[C@H]1CO[C@H]2OCC[C@H]21: ≥ 7.00

Query block: Determine its reported pIC50: `COCOc1ccc(S(=O)(=O)N(C[C@@H](O)[C@H](Cc2ccccc2)NC(=O)OC(C)(C)C)OC2CCCC2)cc1`
Result block: ≤ 7.00

Query block: Quickly give me recorded pIC50 for `O=C(N[C@@H](Cc1ccccc1)[C@H](O)CN(OC1CCCC1)S(=O)(=O)c1ccc2cn[nH]c2c1)O[C@H]1CCOC1`
Result block: 6.30 to 7.00

---

System: HIV-1 (strain IIIB)
Assay: microbe, parasite or virus in culture
Assay type: cell-based
Details: Human immunodeficiency virus 1, 120 h; MT4 cells infected with HIV-1 strain IIIB, 5 days; lower line of each compound's entry; read-out: IC50 (MT-4 cells)
Reported Metric: IC50

# example entries with known answers
1) CN(C(=O)OC(C)(C)C)c1cccc(S(=O)(=O)N(C[C@@H](O)[C@H](Cc2ccccc2)NC(=O)O[C@H]2CO[C@H]3OCC[C@H]32)OC2CCCC2)c1 [Compound 128]: > 1000 nM
2) CCC(CC)ON(C[C@@H](O)[C@H](Cc1ccccc1)NC(=O)O[C@H]1CO[C@H]2OCC[C@H]21)S(=O)(=O)c1ccc2c(c1)OCO2 [Example 162]: ≤ 100 nM

Now consider the entry below.
Query block: Find the measured IC50 of CC(C)ON(C[C@@H](O)[C@H](Cc1ccccc1)NC(=O)OC(C)(C)C)S(=O)(=O)c1ccc2[nH]c(NS(C)(=O)=O)nc2c1 [Compound 5] and report it.
Result block: 500 to 1000 nM

---

In this section we review reported IC50 values for a set of compounds.
Test system: HIV-1 (strain IIIB)
Assay: microbe, parasite or virus in culture
Format: cell-based
Details: Human immunodeficiency virus 1, 120 h; MT4 cells infected with HIV-1 strain IIIB, 5 days; lower line of each compound's entry; read-out: IC50 (MT-4 cells)

The cases that follow already have their IC50 on record.
1) O=C(O)CNc1cccc(S(=O)(=O)N(CC(O)C(Cc2ccccc2)NC(=O)OC2COC3OCCC23)OC2CCCC2)c1 (stereo not drawn): > 1000 nM
2) COc1ccc(S(=O)(=O)N(C[C@@H](O)[C@H](Cc2ccccc2)NC(=O)C(C)CS(C)(=O)=O)OC2CCCC2)cc1 (stereo partly drawn): 500 to 1000 nM
3) COC(=O)Nc1nc2cc(S(=O)(=O)N(C[C@@H](O)[C@H](Cc3ccccc3)NC(=O)OC3CO[C@H]4OCC[C@@H]34)OC3CCCC3)ccc2[nH]1 (mixture of isomers): ≤ 100 nM
4) CCC(C)ON(C[C@@H](O)[C@H](Cc1ccccc1)NC(=O)OC(C)(C)C)S(=O)(=O)c1ccc(OC)cc1 (stereo partly drawn): > 1000 nM

Query block: Determine from records and report IC50 for O=C(N[C@@H](Cc1ccccc1)[C@H](O)CN(OC1CCCC1)S(=O)(=O)c1ccc2cn[nH]c2c1)OC1CO[C@H]2OCC[C@@H]12 (stereo partly drawn)
Result block: ≤ 100 nM

Query block: Please indicate IC50 recorded for `CCC(CC)ON(C[C@@H](O)[C@H](Cc1ccccc1)NC(=O)O[C@H]1CO[C@H]2OCC[C@H]21)S(=O)(=O)c1cccc(N)c1`
Result block: ≤ 100 nM

---

As shown below, each of these compounds has a reported Ki value.
Target: HIV-1 protease (Human immunodeficiency virus type 1 group M subtype B, UniProt P04585)
Test: biochemical
Settings: HIV-1 protease; upper line of each compound's entry; read-out: Ki (enzyme)

1. Nc1ccc(S(=O)(=O)N(C[C@@H](O)[C@H](Cc2ccccc2)NC(=O)O[C@H]2CO[C@H]3OCC[C@H]32)OC2CCCCC2)cc1 [Compound 153]: < 1 nM
2. NC(=O)COc1cccc(S(=O)(=O)N(C[C@@H](O)[C@H](Cc2ccccc2)NC(=O)OC2CO[C@H]3OCC[C@@H]23)OC2CCCC2)c1 (stereo partly drawn) [Compound 136]: < 1 nM
3. CC(C)(C)OC(=O)N[C@@H](Cc1ccccc1)[C@H](O)CN(OC1CCCC1)S(=O)(=O)c1ccc2[nH]c(=O)[nH]c2c1 [Compound 131]: < 1 nM
4. O=C(N[C@@H](Cc1ccccc1)[C@H](O)CN(OC1CCOCC1)S(=O)(=O)c1cccc(O)c1)O[C@H]1CO[C@H]2OCC[C@H]21 [Compound 148]: < 1 nM
5. CNC(=O)NCCNc1cccc(S(=O)(=O)N(CC(O)C(Cc2ccccc2)NC(=O)OC2COC3OCCC23)OC2CCCC2)c1 (stereo not drawn) [Compound 121]: < 1 nM

Query block: Quote Ki reported for COc1ccc(S(=O)(=O)N(C[C@@H](O)[C@H](Cc2ccccc2)NC(=O)O[C@H]2CO[C@@H]3OCC[C@@H]32)OC2CCCC2)cc1 [Compound 116] please.
Result block: > 100 nM
